Target: Muscarinic acetylcholine receptor M1 (Rattus norvegicus) (UniProt P08482)
Experiment: M5 positive allosteric modulators, analog testing, SAR follow-up, CHO cells, calcium, ACh EC10, single 30 µM (AID 2665);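 also: 100% = response to a maximal acetylcholine concentration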
Settings: rat M1 potentiation, CHO calcium; at 30 µM; stronger effect = higher value
Readout Name: % ACh max response (%)
Respond numerically; units are % and should not be typed.

Quick one: % ACh max response for COc1cccc(CN2C(=O)C(=O)c3cc(C)ccc32)c1 ?
14.5

Now consider Cc1ccccc1CN1C(=O)C(=O)c2cc(OC(F)(F)F)ccc21 .
26.2

Now consider O=C1C(=O)N(Cc2ccc(F)cc2F)c2c(F)cccc21 .
64.4

Now consider Cc1ccc2c(c1)C(=O)C(=O)N2Cc1ccc(Br)cc1 .
19

Now consider O=C1C(=O)N(Cc2ccc(OC(F)(F)F)cc2)c2ccc(F)cc21 .
59.8

Now consider Cc1cccc2c1N(Cc1ccc(F)cc1F)C(=O)C2=O .
32.6

Now consider O=C1C(=O)N(Cc2ccc(C(F)(F)F)cc2)c2ccc(Cl)cc21 .
44.1

Now consider O=C1C(=O)N(Cc2ccc(Br)cc2)c2c(F)cccc21 .
62.7

Now consider O=C1C(=O)N(Cc2c(F)cccc2F)c2c(Cl)ccc(Cl)c21 .
16.4

Now consider O=C1C(=O)N(Cc2ccccc2Cl)c2ccc(OC(F)(F)F)cc21 .
12.3

Now consider O=C1C(=O)N(Cc2ccccc2C(F)(F)F)c2c(F)cccc21 .
41.3

Now consider O=C1C(=O)N(Cc2ccccc2Cl)c2ccc(F)cc21 .
41.4

Now consider Cc1ccc2c(c1)C(=O)C(=O)N2Cc1ccccc1C(F)(F)F .
17.8

Now consider O=C1C(=O)N(Cc2ccc(Br)cc2F)c2c(F)cccc21 .
39.2

Now consider COc1cccc(CN2C(=O)C(=O)c3cccc(F)c32)c1 .
51.1

Now consider Cc1ccc2c(c1)C(=O)C(=O)N2Cc1ccc(Br)cc1F .
22.3

---

Target: Muscarinic acetylcholine receptor M5 (Homo sapiens)
Assay: M5 positive allosteric modulators, analog testing, SAR follow-up, CHO cells, calcium, ACh EC10, single 30 µM (AID 2665);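 also: 100% = response to a maximal acetylcholine concentration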
Conditions: CHO hM5 calcium flux, ACh EC10 potentiation; at 30 µM; stronger effect = higher value
Readout Name: % ACh max response (%)
Respond numerically; units are % and should not be typed.

Quick one: % ACh max response for COc1ccccc1-c1ccc(CN2C(=O)C(=O)c3cc(OC(F)(F)F)ccc32)cc1 ?
72.6

Now consider O=C1C(=O)N(Cc2ccccc2F)c2ccccc21 .
24.5

Now consider COc1ccc(CCN2C(=O)C(=O)c3cc(OC(F)(F)F)ccc32)cc1 .
88.3

Now consider O=C1C(=O)N(Cc2ccccc2Cl)c2ccccc21 .
42

Now consider O=C1C(=O)N(Cc2ccccc2C(F)(F)F)c2ccc(F)cc21 .
36.1

Now consider O=C1C(=O)N(Cc2ccc(-c3ccc(F)nc3)cc2)c2ccccc21 .
46

Now consider O=C1C(=O)N(Cc2ccc(-c3ccc(Cl)cc3)cc2)c2ccc(OC(F)(F)F)cc21 .
45.5

Now consider O=C1C(=O)N(Cc2ccccc2F)c2c(F)cccc21 .
42.4

Now consider O=C1C(=O)N(Cc2ccc(OC(F)(F)F)cc2)c2ccccc21 .
60.5

Now consider Cc1ccc2c(c1)C(=O)C(=O)N2Cc1ccccc1C(F)(F)F .
30.6

Now consider O=C1C(=O)N(Cc2ccc(F)cc2F)c2c(F)cccc21 .
68.9

Now consider O=C1C(=O)N(Cc2ccc(F)cc2F)c2c(Cl)cccc21 .
61.6

Now consider COc1ccc(-c2ccc(CN3C(=O)C(=O)c4cc(OC(F)(F)F)ccc43)cc2)cc1 .
46

Now consider O=C1C(=O)N(Cc2ccc(-c3ccc(Cl)c(Cl)c3)cc2)c2ccc(OC(F)(F)F)cc21 .
73.5

Now consider O=C1C(=O)N(Cc2ccc(C(F)(F)F)cc2)c2c(Cl)cccc21 .
70.8

Now consider O=C1C(=O)N(Cc2ccccc2Cl)c2c(F)cccc21 .
20.3

Now consider O=C1C(=O)N(Cc2ccccc2Cl)c2ccc(F)cc21 .
39.9

Now consider O=C1C(=O)N(Cc2ccccc2F)c2ccc(Cl)cc21 .
36.3

Now consider O=C1C(=O)N(Cc2ccc(C(F)(F)F)cc2)c2ccc(OC(F)(F)F)cc21 .
67.2

Now consider O=C1C(=O)N(Cc2ccc(Br)cc2F)c2c(Cl)ccc(Cl)c21 .
12.4

Now consider COc1ccc(-c2ccc(CN3C(=O)C(=O)c4ccccc43)cc2)cc1 .
30.8

Now consider Cc1ccc2c(c1)C(=O)C(=O)N2Cc1ccccc1C .
29.9
